# Test system: acute liver injury induced by carbon tetrachloride
# experimental protocol: Protective effect on acute liver injury induced by carbon tetrachloride (mice, oral): plasma GPT activity and BSP retention
# Assay type: in vivo, mice (ddY, male)
# recorded conditions: 5 mg/kg, 6 h before CCl4 (0.05 ml/kg p.o.), plasma
Each entry below lists one item and its recorded GPT activity value.
Give a bare numeral; the unit Karmen units is implied.

Sample answers from the record:
*Q* Hello, please tell me recorded GPT activity for this one: C=CC[N+](CC=C)=c1sccs1.[O-][Cl+3]([O-])([O-])[O-] [Compound No. 12]
*A* 1241

*Q* Hello, please tell me recorded GPT activity for this one: CC1CC[N+](=c2sccs2)CC1.[O-][Cl+3]([O-])([O-])[O-] (stereo not shown) [Compound No. 53]
*A* 193

*Q* Hello, please tell me recorded GPT activity for this one: CCOC(=O)C1CCC[N+](=c2sccs2)C1.[I-] (stereo not shown) [Compound No. 55]
*A* 361

Switching to the query record.
*Q* Hello, please tell me recorded GPT activity for this one: C[N+](=c1sccs1)C1CCCCC1.[O-][Cl+3]([O-])([O-])[O-] [Compound No. 7]
*A* 1400

====

# Tested on: acute liver injury induced by carbon tetrachloride
# experimental protocol: Protective effect on acute liver injury induced by carbon tetrachloride (mice, oral): plasma GPT activity and BSP retention
# Type: in vivo, mice (ddY, male)
# recorded conditions: 1 mg/kg, 6 h before CCl4 (0.05 ml/kg p.o.), plasma
Note: every record was labeled by where its GPT activity sits among bin 0: < 2000 Karmen units; bin 1: ≥ 2000 Karmen units and < 4000 Karmen units; bin 2: ≥ 4000 Karmen units

*Q* Classify this molecule: CC1CC[N+](=c2sccs2)CC1.[O-][Cl+3]([O-])([O-])[O-] (centres unmarked)
*A* bin 0

*Q* Classify this molecule: CC1CC(C)C[N+](=c2sccs2)C1.[I-] (centres unmarked)
*A* bin 1

*Q* Classify this molecule: CN1CC[N+](=c2sccs2)CC1.[O-][Cl+3]([O-])([O-])[O-]
*A* bin 0

*Q* Classify this molecule: N#CC1CC[N+](=c2sccs2)CC1.[O-][Cl+3]([O-])([O-])[O-] (centres unmarked)
*A* bin 1

*Q* Classify this molecule: O=C(O)C1CC[N+](=c2sccs2)CC1.[O-][Cl+3]([O-])([O-])[O-] (centres unmarked)
*A* bin 1

*Q* Classify this molecule: C[N+](CCC#N)=c1sccs1.[I-]
*A* bin 1

New cases:
*Q* Classify this molecule: CCCCCCC1CCC[N+]1=c1sccs1.[O-][Cl+3]([O-])([O-])[O-] (centres unmarked)
*A* bin 2

====

# System: acute liver injury induced by carbon tetrachloride
# experimental protocol: Protective effect on acute liver injury induced by carbon tetrachloride (mice, oral): plasma GPT activity and BSP retention
# Format: in vivo, mice (ddY, male)
# recorded conditions: 1 mg/kg, 6 h before CCl4 (0.05 ml/kg p.o.), plasma
recorded metric: GPT activity
Record the result as a number with its unit.

Sample answers from the record:
*Q* Hello, please tell me recorded GPT activity for this one: CC1CCC[N+](=c2sccs2)C1.[O-][Cl+3]([O-])([O-])[O-] (stereo not shown)
*A* 2391 ± 325 Karmen units

*Q* Hello, please tell me recorded GPT activity for this one: [O-][Cl+3]([O-])([O-])[O-].c1ccc(C[N+](Cc2ccccc2)=c2sccs2)cc1
*A* 4121 ± 311 Karmen units

*Q* Hello, please tell me recorded GPT activity for this one: NC(=O)C1CCC[N+]1=c1sccs1.[I-] (stereo not shown)
*A* 6311 ± 867 Karmen units

*Q* Hello, please tell me recorded GPT activity for this one: CC(C)CC(C(=O)OC(C)C)[N+](C)=c1sccs1.[O-][Cl+3]([O-])([O-])[O-] (stereo not shown)
*A* 4100 ± 615 Karmen units

*Q* Hello, please tell me recorded GPT activity for this one: Cc1cccc([N+](C)=c2sccs2)c1.[O-][Cl+3]([O-])([O-])[O-]
*A* 2250 ± 325 Karmen units

New cases:
*Q* Hello, please tell me recorded GPT activity for this one: C[N+](Cc1ccccc1)=c1sccs1.[O-][Cl+3]([O-])([O-])[O-]
*A* 1865 ± 106 Karmen units

*Q* Hello, please tell me recorded GPT activity for this one: [O-][Cl+3]([O-])([O-])[O-].c1csc(=[N+]2CCOCC2)s1
*A* 483 ± 178 Karmen units

*Q* Hello, please tell me recorded GPT activity for this one: C=CC[N+](CC=C)=c1sccs1.[O-][Cl+3]([O-])([O-])[O-]
*A* 5438 ± 401 Karmen units

*Q* Hello, please tell me recorded GPT activity for this one: CNC(=O)C[N+](C)=c1sccs1
*A* 3740 ± 430 Karmen units

*Q* Hello, please tell me recorded GPT activity for this one: COC(=O)CC(C(=O)OC)[N+](C)=c1sccs1.[O-][Cl+3]([O-])([O-])[O-] (stereo not shown)
*A* 4760 ± 298 Karmen units
